// provenance: patent US10688200B2

assay: Biodistribution of radiotracers in normal mice; assay type: in vivo, mouse; conditions: normal male mice, 120 min
Biodistribution: Skin for assorted compounds
Write it as a number; the unit % dose/g goes unstated.

Record excerpt, results attached:
- compound: "O=C(O)CCc1ccc2c(c1)C[N+]13CC[N+]45CC(=O)[O][68Ga-3]14([O]C(=O)C3)([O]2)[O]c1ccc(CCC(=O)NCC(=O)N[C@@H](Cc2ccc(OCC(=O)N[C@@H](Cc3ccccc3)C(=O)NCCCC[C@H](NC(=O)N[C@@H](CCC(=O)O)C(=O)O)C(=O)O)cc2)C(=O)O)cc1C5 (stereo partly drawn) [[^68Ga]5b]"
  measurementLabel: "Biodistribution: Skin"
  readoutValue: 0.26
- compound: "O=C(O)CC[C@H](NC(=O)N[C@@H](CCCCNC(=O)CCCCCNC(=O)CCc1ccc2c(c1)C[N+]13CC[N+]45CC(=O)[O][68Ga-3]14([O]C(=O)C3)([O]2)[O]c1ccc(CCC(=O)NCCNC(=O)CN2CCN(CC(=O)O)CCN(CC(=O)O)CCN(CC(=O)O)CC2)cc1C5)C(=O)O)C(=O)O (stereo partly drawn) [[^68Ga]1g]"
  measurementLabel: "Biodistribution: Skin"
  readoutValue: 0.66
- compound: "O=C(O)CCc1ccc2c(n1)C[N+]13CC[N+]45CC(=O)[O][68Ga-3]14([O]C(=O)C3)([O]2)[O]c1ccc(CCC(=O)NCCCCCC(=O)NCCCC[C@H](NC(=O)N[C@@H](CCC(=O)O)C(=O)O)C(=O)O)nc1C5 (stereo partly drawn) [[^68Ga]2]"
  measurementLabel: "Biodistribution: Skin"
  readoutValue: 0.29
- compound: "O=C(O)CCc1ccc(O)c(CN(CCN(CC(=O)O)Cc2cc(CCC(=O)NCCCCCC(=O)NCCCC[C@H](NC(=O)N[C@@H](CCC(=O)O)C(=O)O)C(=O)O)ccc2O)CC(=O)O)n1 [[^68Ga]4a, metal not drawn]"
  measurementLabel: "Biodistribution: Skin"
  readoutValue: 0.30
- compound: "O=C(O)CCc1ccc2c(c1)C[N+]13CC[N+]45CC(=O)[O][68Ga-3]14([O]C(=O)C3)([O]2)[O]c1ccc(CCC(=O)NCCCCCC(=O)NCCCC[C@H](NC(=O)N[C@@H](CCC(=O)O)C(=O)O)C(=O)O)cc1C5 (stereo partly drawn) [[^68Ga]1a, reference compound]"
  measurementLabel: "Biodistribution: Skin"
  readoutValue: 0.31

Lab note: next compound to report on.
-- ask Can you look up the measured Biodistribution: Skin of O=C(O)CC[C@H](NC(=O)N[C@@H](CCCCNC(=O)CCCCCNC(=O)CCc1ccc2c(n1)C[N+]13CC[N+]45CC(=O)[O][68Ga-3]14([O]C(=O)C3)([O]2)[O]c1ccc(CCC(=O)NCCCCCC(=O)NCCCC[C@H](NC(=O)N[C@@H](CCC(=O)O)C(=O)O)C(=O)O)nc1C5)C(=O)O)C(=O)O (stereo partly drawn) [[^68Ga]3] for me?
-- reply 1.22
